# Test system: Monocotyledonous and dicotyledonous test plants
# Method Description: Post-emergence herbicidal action, greenhouse pot test, sprayed at the 2- to 3-leaf stage, 9-level rating after 2 to 3 weeks
# Assay type: in vivo
# Design: key: 9-level scale: 1 = complete damage, 9 = no effect
# Run Parameters: Amaranth, 250 g/ha, rated after 2 to 3 weeks, 9-level scale
# Post-emergence action rating, Amaranth listing for each entry below
Measure Name: Post-emergence action rating, Amaranth

>>> measurement("COCCOCc1nc(C(F)(F)F)ccc1C(=O)c1cnn(C)c1OS(=O)(=O)c1ccc(C)cc1")
2
>>> measurement("COCc1nc(C(F)(F)F)ccc1C(=O)c1c(C)nn(C)c1O")
2
>>> measurement("CN(Cc1nc(C(F)(F)F)ccc1C(=O)C1=C(O)C2CCC(C2)C1=O)S(C)(=O)=O (stereo not drawn)")
2
>>> measurement("COCc1nc(C(F)(F)F)ccc1C(=O)c1cnn(C)c1O")
2
>>> measurement("COCCOCCOCCOCc1nc(C(F)(F)F)ccc1C(=O)C1=C(O)C2CCC(C2)C1=O (stereo not drawn)")
1
>>> measurement("O=C(C1=C(O)C2CCC(C2)C1=O)c1ccc(C(F)(F)F)nc1COC1COC1 (stereo not drawn)")
2
>>> measurement("O=C(C1=C(O)C2CCC(C2)C1=O)c1ccc(C(F)(F)F)nc1COCCOCc1ccccc1 (stereo not drawn)")
2
>>> measurement("CC(C)(C)C(=O)OC1=C(C(=O)c2ccc(C(F)(F)F)nc2COCCO)C(=O)C2CCC1C2 (stereo not drawn)")
3
>>> measurement("O=C(C1=C(O)C2CCC(C2)C1=O)c1ccc(C(F)(F)F)nc1COCC(F)(F)F (stereo not drawn)")
1
